inhibition at 50 µM values by entry
- System: PGE2 formation in normal human epidermal keratinocytes (NHEK)
- Experimental protocol: Inhibition of PGE2 formation in irritated keratinocyte cultures (PGE2 immunoassay)
- Assay type: cell-based
- Details: Homo sapiens, NHEK; 50 μM compound; irritated with calcimycin 2.5 μM; 24 h; 1% DMSO; read-out: relative inhibition in % of PGE2 formation in keratinocyte cultures at 50 μM
Property name: inhibition at 50 µM (%)

1) CC(C)C(=O)OCCc1ccccc1 [Phenethyl isobutyrate]
44.8
2) CCOc1ccc2ccccc2c1
83
3) O=C(C=Cc1ccccc1)OCCc1ccccc1 [Phenethyl cinnamate]
91.7
4) N#CC(=C1CCCCC1)c1ccccc1
93.3
5) CCC(CC)=C(C#N)c1ccccc1
73.2
6) CC(C)COC(=O)c1ccccc1O [Isobutyl salicylate, isobutyl 2-hydroxybenzoate]
69.1
7) CC(C)Cc1ccc(CC(C)C=O)cc1 (stereo not shown)
62.7
